Test system: A673/TR/shEF
Assay: cell viability (LOESS-normalised, relative to median of negative controls) (log2 ratio); higher = more viable cells (less compound effect), active = hit call of the paper (over 3 MAD below the median)
Conditions: 0.103 µM; library screen: screen3; EWS-FLI1 expression: low (doxycycline-induced shRNA knockdown); treatment time: 72 h
The campaign covered roughly 3,200 compounds. About 300 (9.4%) showed activity. The full list was thinned out, with actives kept by preference.
PARAMETER: cell viability (log2)
Returns: the value as a bare number; no unit string appended.

- STRUCTURE_SMILES: "CNC(=O)c1c(F)cccc1Nc1nc(Nc2cc3c(cc2OC)CCN3C(=O)CN(C)C)nc2[nH]ccc12"
  cell viability (log2): 0.0229
- STRUCTURE_SMILES: "C[C@]12CC[C@@H]3c4ccc(O)cc4CC[C@H]3[C@@H]1CC[C@@H]2O"
  cell viability (log2): -0.00908
- STRUCTURE_SMILES: "CCCCCCCCCCC[C@@H](C[C@@H]1OC(=O)[C@H]1CCCCCC)OC(=O)[C@H](CC(C)C)NC=O"
  cell viability (log2): 0.00452
- STRUCTURE_SMILES: "CCCCCCCCc1ccc(CCC(N)(CO)CO)cc1"
  cell viability (log2): 0.0528

Ask: Reported cell viability (log2), compound [Na+].[Na+].[Na+].[O]=[V]([O-])([O-])[O-] : ____
Result: 0.11

Ask: Reported cell viability (log2), compound COc1cc2c(cc1O)CC[C@@H]1[C@@H]2CC[C@]2(C)[C@@H](O)CC[C@@H]12 : ____
Result: 0.0975
